Assay: Solid-state stability
Assay type: physicochemical
Applied Conditions: solid state, Dark, 4°, 19 days
Counter-ions that a name gives are not always drawn.
Recorded Metric: remaining at 456 h (%)
Please reply with the bare figure in % and do not write the unit itself.

Incoming: Give its remaining at 456 h value. Item: CCCCC[C@H](O)/C=C/[C@@H]1c2cc(CCCCC(=O)O)n(-c3ccccc3)c2C[C@H]1O [Sodium Salt]
Outgoing: 87

----------
Assay: Water solubility
Assay type: physicochemical
Applied Conditions: water; Table I, numeric
Recorded Metric: solubility (µg/mL)
Please reply with the bare figure in µg/mL and do not write the unit itself.

Incoming: Give its solubility value. Item: CCCCC[C@H](O)/C=C/[C@@H]1c2cc(CCCCC(=O)O)n(-c3ccccc3)c2C[C@H]1O [Free Acid, reference compound]
Outgoing: 1

----------
Assay: Stability suspended in trichlorotrifluoroethane
Assay type: physicochemical
Applied Conditions: trichlorotrifluoroethane, dark, 30°, 26 days; read-out: Stability in trichlorotrifluoroethane suspension
Recorded Metric: remaining at 624 h (%)
Please reply with the bare figure in % and do not write the unit itself.

Incoming: Give its remaining at 624 h value. Item: CCCCC[C@H](O)/C=C/[C@@H]1c2cc(CCCCC(=O)O)n(-c3ccccc3)c2C[C@H]1O [Free Acid, reference compound]
Outgoing: 94

----------
Assay: Solid-state stability
Type: physicochemical
Applied Conditions: solid state, Dark, 4°, 66 days
Procedure: The solid-state stability studies were performed as follows. Approximately 10-15 mg of the free acid or a salt was placed in either clear glass vials or amber vials wrapped in aluminum foil and stored under various conditions as listed below: (a) Refrigerated at about 4° C. (dark). […] At various times, 1-1.5 mg samples were dissolved in methanol, diluted to a prescribed volume with water, and analyzed by high pressure liquid chromatography versus reference standard of the free acid stored at -20° C. […]
Counter-ions that a name gives are not always drawn.
Recorded Metric: remaining at 1584 h (%)
Please reply with the bare figure in % and do not write the unit itself.

Incoming: Give its remaining at 1584 h value. Item: CCCCC[C@H](O)/C=C/[C@@H]1c2cc(CCCCC(=O)O)n(-c3ccccc3)c2C[C@H]1O [Potassium Salt]
Outgoing: 102

----------
Assay: Solid-state stability
Type: physicochemical
Applied Conditions: solid state, Dark, 4°, 189 days
Protocol: The solid-state stability studies were performed as follows. Approximately 10-15 mg of the free acid or a salt was placed in either clear glass vials or amber vials wrapped in aluminum foil and stored under various conditions as listed below: (a) Refrigerated at about 4° C. (dark). […] At various times, 1-1.5 mg samples were dissolved in methanol, diluted to a prescribed volume with water, and analyzed by high pressure liquid chromatography versus reference standard of the free acid stored at -20° C. […]
Counter-ions that a name gives are not always drawn.
Recorded Metric: remaining at 4536 h (%)
Please reply with the bare figure in % and do not write the unit itself.

Incoming: Give its remaining at 4536 h value. Item: CCCCC[C@H](O)/C=C/[C@@H]1c2cc(CCCCC(=O)O)n(-c3ccccc3)c2C[C@H]1O [Potassium Salt]
Outgoing: 101

----------
Assay: Solid-state stability
Type: physicochemical
Applied Conditions: solid state, Dark, 33°, 40 days
Recorded Metric: remaining at 960 h
Please append the unit to your numeric answer.

Incoming: Give its remaining at 960 h value. Item: CCCCC[C@H](O)/C=C/[C@@H]1c2cc(CCCCC(=O)O)n(-c3ccccc3)c2C[C@H]1O [Free Acid, reference compound]
Outgoing: 94%

----------
Assay: Solid-state stability
Assay type: physicochemical
Applied Conditions: solid state, Dark, 33°, 66 days
Recorded Metric: remaining at 1584 h (%)
Please reply with the bare figure in % and do not write the unit itself.

Incoming: Give its remaining at 1584 h value. Item: CCCCC[C@H](O)/C=C/[C@@H]1c2cc(CCCCC(=O)O)n(-c3ccccc3)c2C[C@H]1O [Free Acid, reference compound]
Outgoing: 89

----------
Assay: Solid-state stability
Assay type: physicochemical
Applied Conditions: solid state, Dark, 33°, 100 days
Structures can show the parent of a compound that is named as a salt.
Recorded Metric: remaining at 2400 h (%)
Please reply with the bare figure in % and do not write the unit itself.

Incoming: Give its remaining at 2400 h value. Item: CCCCC[C@H](O)/C=C/[C@@H]1c2cc(CCCCC(=O)O)n(-c3ccccc3)c2C[C@H]1O [Potassium Salt]
Outgoing: 97
